Kindly state FACS Cell Binding for each of the entries shown.
TARGET OF ASSAY: T1, native PRLR expressing T47D cells (Homo sapiens, UniProt P16471)
T1 construct: a native PRLR expressing cell line (T47D); endogenous in cells; host or cells: T47D
T1 sequence (P16471 25-622): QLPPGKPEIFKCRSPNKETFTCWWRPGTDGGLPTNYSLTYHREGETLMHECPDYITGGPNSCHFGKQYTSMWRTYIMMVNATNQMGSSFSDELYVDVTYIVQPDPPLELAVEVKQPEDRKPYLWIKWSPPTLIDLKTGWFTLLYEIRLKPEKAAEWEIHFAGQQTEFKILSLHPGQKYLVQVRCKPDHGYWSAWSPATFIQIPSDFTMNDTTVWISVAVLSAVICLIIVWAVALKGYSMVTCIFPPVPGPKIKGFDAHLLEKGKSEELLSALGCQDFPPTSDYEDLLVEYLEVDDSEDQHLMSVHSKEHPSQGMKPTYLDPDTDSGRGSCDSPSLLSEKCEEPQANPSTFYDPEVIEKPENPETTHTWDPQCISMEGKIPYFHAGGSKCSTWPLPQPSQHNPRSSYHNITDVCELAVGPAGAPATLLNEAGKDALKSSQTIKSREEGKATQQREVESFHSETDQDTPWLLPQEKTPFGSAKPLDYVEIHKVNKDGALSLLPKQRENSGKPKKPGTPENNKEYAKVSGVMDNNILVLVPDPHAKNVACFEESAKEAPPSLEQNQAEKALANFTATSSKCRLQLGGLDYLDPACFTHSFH
EXPERIMENT: FACS cell surface binding
Answers are plain numbers, in Fold Above Background.

Fill in FACS Cell Binding for each of the 4 molecules listed.
1. H1H6804P: fully human anti-PRLR antibody, human IgG1 Fc; HCVR/LCVR SEQ ID NOs 242/250 (antibody, V domains shown) VH: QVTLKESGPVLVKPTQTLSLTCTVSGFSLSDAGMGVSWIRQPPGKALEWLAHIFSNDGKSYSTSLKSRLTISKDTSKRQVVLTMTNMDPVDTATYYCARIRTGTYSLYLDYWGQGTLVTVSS VL: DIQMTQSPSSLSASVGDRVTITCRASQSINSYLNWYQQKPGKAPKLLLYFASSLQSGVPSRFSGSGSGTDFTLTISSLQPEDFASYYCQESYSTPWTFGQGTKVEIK
2. H1H6785P: fully human anti-PRLR antibody, human IgG1 Fc; HCVR/LCVR SEQ ID NOs 98/106 (antibody, V domains shown) VH: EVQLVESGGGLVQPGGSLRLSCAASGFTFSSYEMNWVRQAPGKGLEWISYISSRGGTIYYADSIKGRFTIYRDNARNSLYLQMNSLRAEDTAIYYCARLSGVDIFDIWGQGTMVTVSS VL: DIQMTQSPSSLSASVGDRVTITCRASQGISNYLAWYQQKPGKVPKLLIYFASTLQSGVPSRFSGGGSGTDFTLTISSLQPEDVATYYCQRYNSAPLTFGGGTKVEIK
3. H1H6953N: anti-PRLR antibody, human IgG1 Fc form of H1M6953N of Table 1; HCVR/LCVR SEQ ID NOs 274/282 (antibody, V domains shown) VH: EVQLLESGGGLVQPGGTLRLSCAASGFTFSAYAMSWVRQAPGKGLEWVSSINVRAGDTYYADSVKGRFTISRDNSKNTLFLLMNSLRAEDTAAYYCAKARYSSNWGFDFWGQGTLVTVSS VL: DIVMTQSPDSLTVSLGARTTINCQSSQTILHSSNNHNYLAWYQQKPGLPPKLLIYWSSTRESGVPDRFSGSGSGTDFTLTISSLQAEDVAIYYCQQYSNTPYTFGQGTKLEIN
4. H1H6959N2: anti-PRLR antibody, human IgG1 Fc form of H2M6959N2 of Table 1; HCVR/LCVR SEQ ID NOs 306/314 (antibody, V domains shown) VH: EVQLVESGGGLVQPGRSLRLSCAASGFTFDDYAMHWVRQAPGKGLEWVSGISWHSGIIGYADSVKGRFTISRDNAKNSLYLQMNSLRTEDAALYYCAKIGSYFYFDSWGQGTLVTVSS VL: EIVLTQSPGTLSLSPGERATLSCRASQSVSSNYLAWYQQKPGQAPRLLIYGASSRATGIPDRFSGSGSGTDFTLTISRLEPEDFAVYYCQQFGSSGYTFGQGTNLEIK

**Result**
34
40
40
9

Each recorded value in this set is attributed to patent US10925971B2.
